# experiment.description: inhibitors of Chlamydomonas gravitaxis, primary screen, whole organism, Chlamydomonas reinhardtii, WT vs cilia-less mutant, absorbance, 96-well (AID 463189);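 also: 0% = wild type cc124 cells in DMSO and 100% = ciliumless bld1 mutant cells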
# condition.set: OD600 absorbance, 2 days, at 10 µM, hits give high values
Record condition met whenever inhibition is at 20% or higher; record condition not met when lower.

{"molecule": "CCOC(=O)c1ccc(N=CC2=C(O)CC(c3ccco3)CC2=O)cc1 (stereo not given)", "category.label": "condition not met"}
{"molecule": "CCOc1cc(CN2CCOCC2)cc(C(C)=O)c1", "category.label": "condition met"}
{"molecule": "NS(=O)(=O)c1ccc(C(=O)O)cc1", "category.label": "condition met"}
{"molecule": "CCCSC1=C(C#N)C(c2ccc(OC)cc2)C2=C(CC(C)(C)CC2=O)N1 (stereo not given)", "category.label": "condition not met"}

Continue with the molecule presented below.
In plain terms: is recorded inhibition at least 20% for COc1ccc(C2=Nn3c(nnc3-c3ccccc3)SC2)cc1OC ? condition not met

====

# target.desc: Dual specificity protein phosphatase 6 (Homo sapiens)
# experiment.description: DUSP6 inhibitors restoring Erk phosphorylation by chemical complementation, primary imaging in DUSP6-transfected HeLa (AID 609);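 also: phospho-Erk level distribution per well compared with pooled transfected vehicle control wells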
# condition.set: HeLa MKP-3 transfected, phospho-Erk imaging KS statistic; at 10 µM; hits give high values; cells stimulated with TPA for 15 min
Quick reference: inhibition of the listed items.
Give a bare numeral; the unit % is implied.

Here is how some compounds turned out for inhibition.
{"compound": "COc1ccc2[nH]c(C)c(C(=O)CN3CCc4cc(OC)c(OC)cc4C3)c2c1", "target.desc": "Dual specificity protein phosphatase 6 (Homo sapiens)", "units.label": "%", "inhibition": -8.76}
{"compound": "CCC(=O)O[C@@H]1CC(=O)O[C@H](C)CC=CC=C[C@@H](O)[C@H](C)C[C@H](CC=O)[C@H](O[C@H]2O[C@H](C)[C@@H](O[C@H]3C[C@@](C)(O)[C@@H](OC(=O)CC)[C@H](C)O3)[C@H](N(C)C)[C@H]2O)[C@H]1OC", "target.desc": "Dual specificity protein phosphatase 6 (Homo sapiens)", "units.label": "%", "inhibition": 11.3}
{"compound": "O=S(=O)(c1ccccc1)N1CCC(N2CCN(c3ccccc3)CC2)CC1", "target.desc": "Dual specificity protein phosphatase 6 (Homo sapiens)", "units.label": "%", "inhibition": -3.95}
{"compound": "Cc1nc(NCCN)c(C#N)c2c1COC(C)(C)C2", "target.desc": "Dual specificity protein phosphatase 6 (Homo sapiens)", "units.label": "%", "inhibition": 1.75}
{"compound": "COc1cc(NC2=CC(=O)CC(C)(C)C2)cc(OC)c1OC", "target.desc": "Dual specificity protein phosphatase 6 (Homo sapiens)", "units.label": "%", "inhibition": -1.98}

Which inhibition is listed for C[C@]12C[C@H](O)[C@H]3[C@@H](CCC4=CC(=O)CC[C@@]43C)[C@@H]1CC[C@@H]2C(=O)CO ? 9.37

Please answer likewise for CCCSc1nc(C)c(CC(=O)O)c(=O)[nH]1 1.75

====

A collection of compounds and their measured inhibition
# experiment.description: inhibitors of E-selectin induction by TNFa, primary screen, imaging, HUVEC, immunofluorescence, MLSMR starter and 10KST1 sets (AID 487);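 also: signal is fraction of cell area covered by stained E-selectin grains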
# condition.set: HUVEC TNFalpha-induced E-selectin immunofluorescence imaging, at 2 µM; hits give high values
Lab book: enter the figure in %, no units written.

Worked examples, 10 compounds total:
{"compound": "CC(=O)NCCCCCCNC(C)=O", "units.label": "%", "inhibition": 5.3}
{"compound": "CCCCOc1ccc(C)cc1CN(CCO)CCO", "units.label": "%", "inhibition": -87}
{"compound": "CC1(C)CNC(=O)c2sc(N3CCOCC3)nc2C1", "units.label": "%", "inhibition": -112}
{"compound": "CCOC(=O)C1CCN(c2nc3ccccc3nc2C(C#N)C(=O)OC(C)C)CC1 (centres undefined)", "units.label": "%", "inhibition": -90.1}
{"compound": "COc1ccc(C2/C(=C(/O)c3cnn(-c4ccccc4)c3C)C(=O)C(=O)N2CCN(C)C)cc1OC (centres undefined)", "units.label": "%", "inhibition": -17.7}
{"compound": "CCCCN(CCCC)CCCOC(=O)c1ccc(N)cc1", "units.label": "%", "inhibition": -60.2}
{"compound": "O=C(O)c1cnn2c(C(F)(F)F)cc(-c3ccco3)nc12", "units.label": "%", "inhibition": -45.3}
{"compound": "O=C(O)c1cccnc1Nc1cccc(C(F)(F)F)c1", "units.label": "%", "inhibition": -109}
{"compound": "CC(CCc1ccccc1)NCC(O)c1ccc(O)c(C(N)=O)c1 (centres undefined)", "units.label": "%", "inhibition": -7.9}
{"compound": "Cc1cc(OCCN2CCCCC2)nc2ccccc12", "units.label": "%", "inhibition": -39.5}

Dear colleague, I am looking for the recorded inhibition of the following compound: COc1ccc(CCN2CCC(Nc3nc4ccccc4n3Cc3ccc(F)cc3)CC2)cc1 -28.6

What do you have for O=C(Nc1nccs1)NC(C(F)(F)F)C(F)(F)F ? 14.4

Lookup CCCCNC(=O)c1cc2n(n1)C(C(F)(F)F)CC(c1ccccc1)N2 (centres undefined) -41.1
